B1: Protein S100-G, residues 1 to 79; numbered along this chain, P02633 (parent)
chain: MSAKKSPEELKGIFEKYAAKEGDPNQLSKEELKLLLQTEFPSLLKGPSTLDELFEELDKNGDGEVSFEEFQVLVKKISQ

Variants of: B1
assay.details: abundance fitness (aPCA) (normalised: wild type 0, dead -1); higher = more abundant; growth selection in yeast, the domain comes from the species named
condition.set: Bos taurus
The label depends only on abundance fitness: y if it is at least -0.2, n if it is smaller.

// below: answered variants
changes: L73G
classification: y
--
changes: E39M
classification: y
--
changes: A18W
classification: n
--
changes: M1L
classification: n
--
changes: K29I
classification: y
--
changes: K16Q
classification: y

Query block: Please check the record Q71V and state if its abundance fitness is at or above -0.2.
Result block: y

Query block: Please check the record A19T and state if its abundance fitness is at or above -0.2.
Result block: y

Query block: Please check the record G61S and state if its abundance fitness is at or above -0.2.
Result block: y

Query block: Please check the record S28T and state if its abundance fitness is at or above -0.2.
Result block: y

Query block: Please check the record Y17D and state if its abundance fitness is at or above -0.2.
Result block: n
